Hey, just so you know, these numbers are from PubChem BioAssay (Tox21).

Assay: A CellTox Green Cytotoxicity Assay to monitor cytotoxicity in HepG2 cells - 24 hour (AID 1224878); note: nearly all actives have a fitted effect of over 45% in size
Details: CellTox Green fluorescence; series mostly up to 76.8 µM
From the text: National Center for Advancing Translational Sciences [NCATS] NIH Chemical Genomics Center [NCGC] U.S. Environmental Protection Agency [EPA] National Institutes of Environmental Health Sciences [NIEHS] National Toxicology Program [NTP] Cell-based models are critical for drug discovery. […] Viable cells produce no appreciable increases in fluorescence. Therefore, the fluorescence signal produced by the binding interaction with dead cell DNA is proportional to cytotoxicity. […]
Records with an inconclusive call do not appear. Calls of active or inactive are those of the source. Calls come from the whole dose curve; as a rule, active = well fitted activation curve with a large enough effect in the repeat runs; inconclusive = weak or mixed curves; inactive = flat fitted curve, though single readings scatter.
# valid calls are active, inactive; nothing else

These solved cases illustrate the format of a correct answer.
Test call for this molecule, please: "O=C1[C@H]2CCCC[C@H]2C(=O)N1CCCCN1CCN(c2nsc3ccccc23)CC1"
inactive

Entry "C[C@H](CCC(=O)O)[C@H]1CC[C@H]2[C@@H]3CC[C@@H]4C[C@H](O)CC[C@]4(C)[C@H]3C[C@H](O)[C@]12C" : call = ?
inactive

Record lookup: outcome of this test for "CN(C)C(=O)NC1(c2ccccc2)CCN(CC[C@@]2(c3ccc(F)c(F)c3)CN(C(=O)c3ccccc3)CCO2)CC1" ?
inactive

Given CC(C)OC(=O)C(C)N(C(=O)c1ccccc1)c1ccc(F)c(Cl)c1 (centres undefined) , state the outcome it received in this test.
inactive

# outcome recorded in this test, key = "OCCN1CCN(CCCN2c3ccccc3C=Cc3ccccc32)CC1"
inactive

Assay result, entry Cc1ccc(C(=O)Oc2ccc(C(O)CNC(C)(C)C)cc2OC(=O)c2ccc(C)cc2)cc1 (centres undefined) — outcome?
active

Others:
For "CC(C)(COC(=O)c1ccccc1)COC(=O)c1ccccc1" , which call appears in the assay record?
inactive

Short answer needed: outcome of this test for "CCn1cc(C(=O)O)c(=O)c2cnc(N3CCNCC3)nc21" ?
inactive

# lookup: test call for "C#Cc1cccc(Nc2ncnc3cc(OCCOC)c(OCCOC)cc23)c1"
inactive

====

test: qHTS assay to identify small molecule agonists of the estrogen receptor alpha (ER-alpha) signaling pathway in the presence of an antagonist - cell viability counter screen (AID 1259386); conditions: VM7Luc4E2 viability, CellTiter-Fluor fluorescence, 22 h; series mostly up to 92.4 µM;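 note: cells exposed to compounds for 22 h at 37 °C before the viability read; nearly all actives have a fitted effect of over 30% in size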
Records with an inconclusive call do not appear. Calls of active or inactive are those of the source. Calls come from the whole dose curve; as a rule, active = well fitted cell-killing curve with a large enough effect in the repeat runs; inconclusive = weak or mixed curves, or effect the other way; inactive = no such curve, though single readings can be large or run the other way.
Classes to choose from: Yes (active), No (inactive)

Solved entries:
Record request — test call for "CC(C)O.CC(C)O.CCOC(=O)/C=C(\C)O.CCOC(=O)/C=C(\C)O.[Ti]"
No

Given "NCC(=O)CCC(=O)O" , state the outcome it received in this test.
No

---
For COc1ccnc(CS(=O)c2nc3ccc(OC(F)F)cc3[nH]2)c1OC (configuration not stated) , which call appears in the assay record?
No

Would you mind telling me which call this test gave "CC(C)Nc1ccc(NC(C)C)c2c1C(=O)c1ccccc1C2=O" ?
Yes

For "c1cc(CCCc2ccncc2)ccn1" , which call appears in the assay record?
No

What outcome does the record of this test show for "Cc1oc2c(NC(=O)c3c(Cl)cccc3Cl)cccc2c1C(C)(C)O" ?
No

Give the logged outcome of this assay for the following compound: CCC(Cl)CCC(Cl)C(Cl)CC(Cl)C(Cl)C(Cl)CCl (configuration not stated)
No

Call for entry "Nc1ccc(S(=O)(=O)Nc2ccccc2)cc1" :
No

For "CCCCCCc1ccc(-c2ccc(C#N)cc2)cc1" , what call appears in the results of this test?
No

Test call, this compound: "CC(C)(CO)[N+](=O)[O-]"
No

Recorded test outcome, item "CCCCCCCCCCCc1ccccc1"
No

Just curious, what result did "C[C@H]1C[C@H]2[C@@H]3CCC4=CC(=O)C=C[C@]4(C)[C@@]3(Cl)[C@@H](O)C[C@]2(C)[C@@]1(O)C(=O)CO" get here?
No
